System: Escherichia coli IFO 12734
test.details: Antibacterial activity, standard method of Japan Society of Chemotherapy (Table 2)
Assay type: cell-based
measurement.conditions: IFO12734, read-out: Minimal inhibitory concentration
Description: Derivative No. in Table 2 corresponds to derivative No. in Table 1.
property: MIC

Solved entries:
compound | MIC
COc1c(N2CCN(C)CC2)ccc2nc3c4c5c6c(C)c(O)c4c(=O)c(c-3oc12)NC(=O)C(C)=CC=CC(C)C(O)C(C)C(O)C(C)C(OC(C)=O)C(C)C(OC)C=COC(C)(O6)C5=O (stereo not drawn) [Derivative No. 2] | 2.5 µg/mL
CCOc1c(N2CCN(C)CC2)ccc2nc3c4c5c6c(C)c(O)c4c(=O)c(c-3oc12)NC(=O)C(C)=CC=CC(C)C(O)C(C)C(O)C(C)C(OC(C)=O)C(C)C(OC)C=COC(C)(O6)C5=O (stereo not drawn) [Derivative No. 5] | 2.5 µg/mL
CCCOc1c(N2CCN(CC(C)C)CC2)ccc2nc3c4c5c6c(C)c(O)c4c(=O)c(c-3oc12)NC(=O)C(C)=CC=CC(C)C(O)C(C)C(O)C(C)C(OC(C)=O)C(C)C(OC)C=COC(C)(O6)C5=O (stereo not drawn) [Derivative No. 10] | > 10 µg/mL
COc1c(N2CCCC2)ccc2nc3c4c5c6c(C)c(O)c4c(=O)c(c-3oc12)NC(=O)C(C)=CC=CC(C)C(O)C(C)C(O)C(C)C(OC(C)=O)C(C)C(OC)C=COC(C)(O6)C5=O (stereo not drawn) [Derivative No. 1] | > 10 µg/mL
CO[C@H]1/C=C/O[C@@]2(C)Oc3c(C)c(O)c4c(O)c(c(/C=N/N5CCN(C)CC5)c(O)c4c3C2=O)NC(=O)/C(C)=C\C=C\[C@H](C)[C@H](O)[C@@H](C)[C@@H](O)[C@@H](C)[C@H](OC(C)=O)[C@@H]1C [Rifampicin, reference compound] | > 10 µg/mL
COC1C=COC2(C)Oc3c(C)c(O)c4c(=O)c(c5oc6c(OCC(C)C)c(N7CCN(CC(C)C)CC7)ccc6nc-5c4c3C2=O)NC(=O)C(C)=CC=CC(C)C(O)C(C)C(O)C(C)C(OC(C)=O)C1C (stereo not drawn) [Derivative No. 14] | > 10 µg/mL
COc1c(N2CCN(C)CC2)cc(C)c2nc3c4c5c6c(C)c(O)c4c(=O)c(c-3oc12)NC(=O)C(C)=CC=CC(C)C(O)C(C)C(O)C(C)C(OC(C)=O)C(C)C(OC)C=COC(C)(O6)C5=O (stereo not drawn) [Derivative No. 16] | 5 µg/mL
CCOc1c(N2CCN(CC(C)C)CC2)ccc2nc3c4c5c6c(C)c(O)c4c(=O)c(c-3oc12)NC(=O)C(C)=CC=CC(C)C(O)C(C)C(O)C(C)C(OC(C)=O)C(C)C(OC)C=COC(C)(O6)C5=O (stereo not drawn) [Derivative No. 8] | > 10 µg/mL

# ---- query compound ----
Missing value: MIC, Escherichia coli IFO 12734, entry COC1C=COC2(C)Oc3c(C)c(O)c4c(=O)c(c5oc6c(OC(C)C)c(N7CCN(CC(C)C)CC7)ccc6nc-5c4c3C2=O)NC(=O)C(C)=CC=CC(C)C(O)C(C)C(O)C(C)C(OC(C)=O)C1C (stereo not drawn) [Derivative No. 13] . Fill in?
> 10 µg/mL

----------
Target or system Escherichia coli IFO 12734; recorded quantity MIC.

compound | MIC
CCOc1c(N2CCN(CC)CC2)ccc2nc3c4c5c6c(C)c(O)c4c(=O)c(c-3oc12)NC(=O)C(C)=CC=CC(C)C(O)C(C)C(O)C(C)C(OC(C)=O)C(C)C(OC)C=COC(C)(O6)C5=O (stereo not drawn) [Derivative No. 6] | 5 µg/mL
COc1c(N2CCCC2)cc(C)c2nc3c4c5c6c(C)c(O)c4c(=O)c(c-3oc12)NC(=O)C(C)=CC=CC(C)C(O)C(C)C(O)C(C)C(OC(C)=O)C(C)C(OC)C=COC(C)(O6)C5=O (stereo not drawn) [Derivative No. 15] | > 10 µg/mL

Which MIC value belongs to COC1C=COC2(C)Oc3c(C)c(O)c4c(=O)c(c5oc6c(OC(C)C)c(N7CCCC7)ccc6nc-5c4c3C2=O)NC(=O)C(C)=CC=CC(C)C(O)C(C)C(O)C(C)C(OC(C)=O)C1C (stereo not drawn) [Derivative No. 11] ?
> 10 µg/mL

----------
test.details: Plasma concentration after oral administration to mice, bioassay with Micrococcus luteus IFO 12708
Assay type: in vivo, ddY male mice
measurement.conditions: mouse, 5 hours, 20 mg/kg
property: concentration at 5 h
# output: number + unit

compound | result
COC1C=COC2(C)Oc3c(C)c(O)c4c(=O)c(c5oc6c(OC(C)C)c(N7CCCC7)ccc6nc-5c4c3C2=O)NC(=O)C(C)=CC=CC(C)C(O)C(C)C(O)C(C)C(OC(C)=O)C1C (centres unmarked) | 13800 ng/mL

# ---- query compound ----
Which concentration at 5 h value belongs to CCOc1c(N2CCCC2)ccc2nc3c4c5c6c(C)c(O)c4c(=O)c(c-3oc12)NC(=O)C(C)=CC=CC(C)C(O)C(C)C(O)C(C)C(OC(C)=O)C(C)C(OC)C=COC(C)(O6)C5=O (centres unmarked) ?
14500 ng/mL

----------
test.details: Plasma concentration after oral administration to mice, bioassay with Micrococcus luteus IFO 12708
Format: in vivo, ddY male mice
measurement.conditions: mouse, 1 hour, 20 mg/kg
Protocol: The derivatives No. 4 and No. 11 shown in Table 1 were orally administered to ddY male mice (7 weeks), respectively, in a dose of 20 mg/kg. The concentration of the test compound in the plasma was measured by a bioassay method employing Micrococcus luteus IFO 12708 as an assay bacterium according to a usual manner. […]
Each item that follows carries a reported concentration at 1 h.
Unit ng/mL implied. Number only.

compound | result.units | numeric.readout
COC1C=COC2(C)Oc3c(C)c(O)c4c(=O)c(c5oc6c(OC(C)C)c(N7CCCC7)ccc6nc-5c4c3C2=O)NC(=O)C(C)=CC=CC(C)C(O)C(C)C(O)C(C)C(OC(C)=O)C1C (centres unmarked) [Derivative No. 11] | ng/mL | 17300

# ---- query compound ----
Which concentration at 1 h value belongs to CCOc1c(N2CCCC2)ccc2nc3c4c5c6c(C)c(O)c4c(=O)c(c-3oc12)NC(=O)C(C)=CC=CC(C)C(O)C(C)C(O)C(C)C(OC(C)=O)C(C)C(OC)C=COC(C)(O6)C5=O (centres unmarked) [Derivative No. 4] ?
17000

----------
test.details: Plasma concentration after oral administration to mice, bioassay with Micrococcus luteus IFO 12708
Format: in vivo, ddY male mice
measurement.conditions: mouse, 3 hours, 20 mg/kg
property: concentration at 3 h (ng/mL)
Unit ng/mL implied. Number only.

compound | concentration at 3 h [ng/mL]
CCOc1c(N2CCCC2)ccc2nc3c4c5c6c(C)c(O)c4c(=O)c(c-3oc12)NC(=O)C(C)=CC=CC(C)C(O)C(C)C(O)C(C)C(OC(C)=O)C(C)C(OC)C=COC(C)(O6)C5=O (centres unmarked) | 13300

# ---- query compound ----
Which concentration at 3 h value belongs to COC1C=COC2(C)Oc3c(C)c(O)c4c(=O)c(c5oc6c(OC(C)C)c(N7CCCC7)ccc6nc-5c4c3C2=O)NC(=O)C(C)=CC=CC(C)C(O)C(C)C(O)C(C)C(OC(C)=O)C1C (centres unmarked) ?
16200

----------
Target or system Bacillus subtilis IFO 3134; recorded quantity MIC.
Unit µg/mL implied. Number only.

Solved entries:
compound | MIC, µg/mL
COc1c(N2CCCC2)ccc2nc3c4c5c6c(C)c(O)c4c(=O)c(c-3oc12)NC(=O)C(C)=CC=CC(C)C(O)C(C)C(O)C(C)C(OC(C)=O)C(C)C(OC)C=COC(C)(O6)C5=O (stereo not drawn) | 0.16
CO[C@H]1/C=C/O[C@@]2(C)Oc3c(C)c(O)c4c(O)c(c(/C=N/N5CCN(C)CC5)c(O)c4c3C2=O)NC(=O)/C(C)=C\C=C\[C@H](C)[C@H](O)[C@@H](C)[C@@H](O)[C@@H](C)[C@H](OC(C)=O)[C@@H]1C [Rifampicin, reference compound] | 0.08
CCOc1c(N2CCCC2)ccc2nc3c4c5c6c(C)c(O)c4c(=O)c(c-3oc12)NC(=O)C(C)=CC=CC(C)C(O)C(C)C(O)C(C)C(OC(C)=O)C(C)C(OC)C=COC(C)(O6)C5=O (stereo not drawn) | 0.04

Missing value: MIC, Bacillus subtilis IFO 3134, entry COC1C=COC2(C)Oc3c(C)c(O)c4c(=O)c(c5oc6c(OCC(C)C)c(N7CCN(CC(C)C)CC7)ccc6nc-5c4c3C2=O)NC(=O)C(C)=CC=CC(C)C(O)C(C)C(O)C(C)C(OC(C)=O)C1C (stereo not drawn) . Fill in?
0.08

Queued: COc1c(N2CCCC2)cc(C)c2nc3c4c5c6c(C)c(O)c4c(=O)c(c-3oc12)NC(=O)C(C)=CC=CC(C)C(O)C(C)C(O)C(C)C(OC(C)=O)C(C)C(OC)C=COC(C)(O6)C5=O (stereo not drawn)
0.08
